Assay: Standard protocol for determination of kcat and KM (continuous spectrophotometric assay, Acetyl CoA hydrolysis at 235 nm)
Type: biochemical
Details: purified protein; about 23° C.; 20 mM HEPES pH 6.8, 10% ethylene glycol, 0.2 mM acetyl CoA
Experimental: KM was calculated from the initial reaction rates obtained from concentrations of glyphosate ranging from 0.125 to 10 mM, using the Lineweaver-Burke transformation of the Michaelis-Menten equation. kcat/KM was determined by dividing the value determined for kcat by the value determined for KM. Using this methodology, kinetic parameters for a number of GAT polypeptides exemplified herein were determined. […]
property_label: Kcat
Answer with the number, then the unit.

Prompt: Report Kcat for SEQ ID NO: 380: GAT polypeptide (protein, 4H1, GAT polypeptide) MIEVKPINAEDTYEIRHRILRPNQPLEACMYETDLLGGAFHLGGYYQGKLISIASFHQAVHSELEGQKQYQLRGMATLEGYREQKAGSTLIRHAEELLRKKGADLLWCNARTSVSGYYKKLGFSEQGGVYDIPPIGPHILMYKKLT please.
Completion: 1.3 min⁻¹

Prompt: Can you look up the measured Kcat of SEQ ID NO: 364: GAT polypeptide (protein, 3C_9H8, GAT polypeptide) MIEVKPINAEDTYEIRHRILRPNQPLEACMYETDLLGGTFHLGGYYQDRLISIASFHQAEHSELEGQKQYQLRGMATLEGYREQKAGSTLIRYAEELLRKKGADLLWCNARISASGYYEKLGFSEQGEVYDIPPIGPHILMYKKLT for me?
Completion: 11.7 min⁻¹

Prompt: Entry under review: SEQ ID NO: 265: GAT polypeptide (protein, 14_2A5, GAT polypeptide) MIEVKPINAEDTYEIRHRILRPNQPLEACKYETDLLGSTFHLGGYYRGKLISIASFNQAEHPELEGQKQYQLRGMATLEGYREQKAGSTLIRHAEELLRKKGADLLWCNARTSASGYYKKLGFSEQGEVYDTPPVGPHILMYKKLT . Reported Kcat?
Completion: 280.8 min⁻¹

Prompt: Give its Kcat value. Item: SEQ ID NO: 430: GAT polypeptide (protein, 9_23A10, GAT polypeptide) MIEVKPINAEDTYEIRHRILRPNQPLEACKYETDLLGGTLHLGGYYRGKLVSIASFHQAEHPELEGQKQYQLRGMATLEGYRGQKAGSTLIRHAEELLRKKGADLLWCNARTSASGYYKKLGFSEQGGVYDIPPVGPHILMYKKLT
Completion: 21 min⁻¹

Prompt: # input molecule: SEQ ID NO: 307: GAT polypeptide (protein, 14_10H3, GAT polypeptide) MIEVKPINAEDTYEIRHRILRPNQPLEACKYETDLLRGAFHLGGYYRGKLVSIASFHQAEHPELEGQKQYQLRGMATLEEYREQKAGSTLIRHAEELLRKKGADLLWCNARTSASGYYKKLGFSEQGEVYDTPPVGPHILMYKKLT ; wanted: its Kcat
Completion: 105.2 min⁻¹

Prompt: Fill blank: measured Kcat of the molecule SEQ ID NO: 314: GAT polypeptide (protein, 14_3B2, GAT polypeptide) MIEVKPINAEDTYEIRHRILRPNQPLEACKYETDLLRGAFHLGGYYRGKLVSIASFHQAEHPELEGQKQYQLRGMATLEGYREQKAGSTLIRHAEALLRKKGADLLWCNARTSASGYYKKLGFSEQGGVYDIPPAGPHILMYKKLT is ____.
Completion: 68.7 min⁻¹
